# assay_notes: NCI Yeast Anticancer Drug Screen. Data for the rad50 strain (AID 155)
# measurement_context: S. cerevisiae rad50 strain growth inhibition; at 50.0 µM
The panel holds about 79,000 compounds, 15% with a hit somewhere; the sample as a whole holds those more often. Active and inactive are the calls of the source. Cut-off read from the data, not from the text of the source: active = growth inhibition above about 70%; inactive = the rest. Where a SMILES comes first, the peptide text is derived from it. The star is where a group is joined. Cbz = O=C(OCc1ccccc1)*
Return exactly one item of active, inactive

Some solved cases for reference:
C=CCC(O)c1ccc(OC)c(OC)c1 (centres undefined) ... inactive
COc1ccc(C2SCC(=O)N2c2nncs2)cc1F (centres undefined) ... inactive
CC(C)CC(NC(=O)C(CO)NC(=O)OCc1ccccc1)C(=O)NC(Cc1ccc(O)cc1)C(N)=O (stereo not drawn) (Cbz-Ser-Leu-Tyr-NH2; configuration not given here) ... inactive
CC(=O)Nc1cc(Cl)ccc1C ... inactive
COc1cc(OC)c(NC(=O)ON2C(=O)c3ccccc3C2=O)cc1Cl ... inactive
COc1ccc2c(cnc3c4cc(OC)c(OC)cc4ccc23)c1 ... inactive

Challenge: Check the results log: what was the call for CCc1cccc(C)c1NC(=O)CC1C(=O)Nc2ccccc2S1=O (centres undefined) ?
Response given: inactive

Challenge: Subsequent entry: Cc1cc(OC(C)C)cc(C)c1C(=O)OCC(C)N1CCCC1 (centres undefined)
Response given: inactive

Challenge: Subsequent entry: `COC(=O)C1=C(C)NC(C)=C(C(=O)OC)C1c1cc2ccccc2n2nnnc12`
Response given: inactive

Challenge: Subsequent entry: `CN(CCO)CCN1c2ccccc2Sc2ccccc21`
Response given: inactive

Challenge: Subsequent entry: `Cc1ccc(-n2nc3c(c(C#N)c2=O)-c2ccccc2C3=O)cc1`
Response given: inactive

Challenge: Subsequent entry: `CC1=C(C(=O)NNC(=O)C[N+](C)(C)C)CC(C(=O)NNC(=O)C[N+](C)(C)C)=C(C)N1`
Response given: inactive

Challenge: Subsequent entry: `NNC(=S)N/N=C\c1ccnc2ccccc12`
Response given: inactive

Challenge: Subsequent entry: COC(=O)C1(Cc2ccc3c(c2)CCC3)Cc2ccccc2C1=O (centres undefined)
Response given: inactive

Challenge: Subsequent entry: `Nc1nc(SCCCc2ccccc2)c2[nH]cnc2n1`
Response given: inactive

Challenge: Subsequent entry: COC1OC2COC(c3ccccc3)OC2C(OC)C1OC(=O)c1ccccc1 (centres undefined)
Response given: inactive

Challenge: Subsequent entry: CC1CC[P+](C)(Cc2ccccc2)C1 (mixture of isomers)
Response given: inactive

Challenge: Subsequent entry: `Cn1c(CC(O)(C(F)(F)Cl)C(F)(F)Cl)cc(=O)n1-c1ccccc1`
Response given: inactive

Challenge: Subsequent entry: `c1ccc(-c2n[nH]c3c2CCCc2ccccc2-3)cc1`
Response given: inactive

Challenge: Subsequent entry: Brc1ccc(C2CC(c3cccc4ccccc34)=Nc3ccccc3S2)cc1 (centres undefined)
Response given: inactive

Challenge: Subsequent entry: `COc1ccc(OC)c(NCc2ccccc2)c1`
Response given: inactive

Challenge: Subsequent entry: COC1C(O)CC(OC2CC(OC3CC(O[C@@H]4C(=O)c5c(cc6cc(OC7CC(OC8CC(O)C(O)C(C)O8)C(O)C(C)O7)c(C)c(O)c6c5O)C[C@H]4[C@H](OC)C(=O)[C@@H](O)[C@@H](C)O)OC(C)C3O)OC(C)C2O)OC1C (some centres undefined)
Response given: inactive

Challenge: Subsequent entry: `CN1COc2c3c(c4ccccc4c2C1)CN(C)CO3`
Response given: inactive
